assay: ATG_AP_2_CIS: Attagene CIS-FACTORIAL HepG2 Assay for human Activator Protein 2 (AP-2) (AID 2282932); conditions: HepG2 AP-2 cis-reporter, Attagene transcription factor profiling; actives raise or lower the signal
Activity calls are given as the source filed them. The calls were made as follows: active = hit-call score of the fitted dose curve at least 0.9, where 1 is the maximum; inactive = score below 0.9.
Give one outcome, nothing more. List: active, inactive

CHEMICAL SMILES: CN[C@H]1CC[C@@H](c2ccc(Cl)c(Cl)c2)c2ccc(S(N)(=O)=O)cc21
CAT: inactive

CHEMICAL SMILES: Nc1ccc(S(=O)(=O)c2ccc(N)cc2)cc1
CAT: inactive

CHEMICAL SMILES: COc1cc(-c2nc(NC(=O)c3cc4cc(C)cc(C)c4n3CC(=O)O)sc2CCC2CCCCC2)c(OC)cc1Cl
CAT: active

Would you kindly look at the next entry?
// query Field: outcome | Entry: "CCCCCCCCCCO"
// result inactive

###

read-out: Monocyte Chemoattractant Protein-1 (MCP1), CCL2 (gene 6347); experiment: BSK_3C_MCP1: BioMAP Diversity Plus: 3C Assay for Monocyte Chemoattractant Protein-1 (MCP1) Biomarker Activity (AID 2283017); settings: primary human endothelial cells (HUVEC); actives raise or lower the signal
Active and inactive are the calls of the source. Rule for the calls: active = hit-call score of the fitted dose curve at least 0.9, where 1 is the maximum; inactive = score below 0.9.
Give one outcome, nothing more. List: True = active, False = inactive

Please review the entries below; each comes with its answer.
COMPOUND: COc1ccc(C)cc1N
CAT: False
--
COMPOUND: NC(=O)Cn1c(=O)cc(CCN2CCN(c3nccc4sccc34)CC2)c2ccc(F)cc21
CAT: False
--
COMPOUND: O=C(OCCCCCOC(=O)c1ccccc1)c1ccccc1
CAT: False

// query Field: outcome | Entry: "Nc1ccc2c(c1)C(=O)c1ccccc1C2=O"
// result False

// query Try "CCCCc1ccc2c(n1)[C@@H](c1ccc(OC)cc1C[C@H](C)C(=O)O)[C@H](C(=O)O)[C@H]2c1ccc2c(c1)OCO2" next.
// result False

// query Try "O=c1c(O)c(-c2ccc(O)c(O)c2)oc2cc(O)cc(O)c12" next.
// result True

// query Try "Cc1ccc(N(C)C)cc1" next.
// result False

###

read-out: Macrophage colony-stimulating factor (MCSF), CSF1 (gene 1435); experiment: BSK_LPS_MCSF: BioMAP Diversity Plus: LPS Assay for Macrophage colony-stimulating factor (MCSF) Biomarker Activity (AID 2283083); conditions: primary human HUVEC with PBMC; actives raise or lower the signal
Activity calls are given as the source filed them. How the source made its calls: active means hit-call score of the fitted dose curve at least 0.9, where 1 is the maximum; inactive means score below 0.9.
Give one outcome, nothing more. List: active, inactive

Please review the entries below; each comes with its answer.
COMPOUND: CCCCN(CCCC)CCCC
CAT: inactive
//
COMPOUND: CC(CO)OC(C)CO (stereo unspecified) (tested in a mixture with another compound)
CAT: inactive
//
COMPOUND: NCC1(Cc2noc(=O)[nH]2)CCCCC1
CAT: inactive
//
COMPOUND: Cc1cccc(C)c1O
CAT: inactive

// query Field: outcome | Entry: "CN1CCN(Cc2cc(-c3ccc4[nH]c(=O)oc4c3)co2)[C@@H](c2ccc(F)cc2)C1"
// result inactive

// query Try "C=CCc1ccc(O)c(OC)c1" next.
// result inactive

// query Try "CCOC(=O)C(C)(C)Oc1ccc(Cl)cc1" next.
// result inactive

###

target: human Retinoid X Receptor beta (RXRb), RXRB (gene 6257) (UniProt P28702); test: ATG_RXRb_TRANS: Attagene TRANS-FACTORIAL HepG2 Assay for human Retinoid X Receptor beta (RXRb) (AID 2283013)
Sequence (P28702 whole entry, looked up): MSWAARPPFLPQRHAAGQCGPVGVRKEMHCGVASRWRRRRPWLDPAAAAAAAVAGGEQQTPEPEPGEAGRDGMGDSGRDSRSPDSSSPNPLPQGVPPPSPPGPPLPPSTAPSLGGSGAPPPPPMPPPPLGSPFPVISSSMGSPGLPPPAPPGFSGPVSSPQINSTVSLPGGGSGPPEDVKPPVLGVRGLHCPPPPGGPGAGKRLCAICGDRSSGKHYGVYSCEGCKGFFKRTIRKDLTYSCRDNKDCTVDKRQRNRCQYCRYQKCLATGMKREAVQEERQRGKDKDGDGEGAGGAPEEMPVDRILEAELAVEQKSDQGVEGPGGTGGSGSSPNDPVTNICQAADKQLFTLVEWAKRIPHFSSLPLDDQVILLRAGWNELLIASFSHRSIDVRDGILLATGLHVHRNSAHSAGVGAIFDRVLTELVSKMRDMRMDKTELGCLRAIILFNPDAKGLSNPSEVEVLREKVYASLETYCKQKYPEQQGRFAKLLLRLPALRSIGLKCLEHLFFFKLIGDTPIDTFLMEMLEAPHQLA
Results filed as inconclusive are left out. The source made the active and inactive calls. The calls were made as follows: active = hit-call score of the fitted dose curve at least 0.9, where 1 is the maximum; inconclusive = response in the unintended direction; inactive = score below 0.9.
Give one outcome, nothing more. List: True for active, False for inactive

CHEMICAL SMILES: CCCc1cc(=O)[nH]c(=S)[nH]1
ASSAYED TARGET: human Retinoid X Receptor beta (RXRb), RXRB (gene 6257) (UniProt P28702)
CAT: False

// query Field: outcome | Entry: "Cc1cccc([N+](=O)[O-])c1C"
// result True

// query Try "C=CCc1ccc(O)c(OC)c1" next.
// result True

###

read-out: urokinase plasminogen activator (uPA), PLAU (gene 5328); assay: BSK_BE3C_uPA: BioMAP Diversity Plus: BE3C Assay for urokinase plasminogen activator (uPA) Biomarker Activity (AID 2283038); conditions: primary human bronchial epithelial cells; actives raise or lower the signal;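 also: uPA protein level quantified by ELISA in cell cultures; uPA read one day after compound addition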
Active and inactive are the calls of the source. The calls were made as follows: active = hit-call score of the fitted dose curve at least 0.9, where 1 is the maximum; inactive = score below 0.9.
VALUE KIND: outcome

CHEMICAL SMILES: CCCCCCCCCCCCCCCC
outcome: inactive

CHEMICAL SMILES: CCCc1cc(=O)[nH]c(=S)[nH]1
outcome: inactive

CHEMICAL SMILES: C=CCOC(=O)c1ccccc1C(=O)OCC=C
outcome: inactive

CHEMICAL SMILES: c1cc(-c2ccncc2)ccn1
outcome: inactive

CHEMICAL SMILES: Cc1c(C(=O)O)c(O)cc2c1C(=O)c1c(O)c([C@@H]3O[C@H](CO)[C@@H](O)[C@H](O)[C@H]3O)c(O)c(O)c1C2=O
outcome: inactive

CHEMICAL SMILES: C1CCC(SSC2CCCCC2)CC1
outcome: inactive

// query I would be grateful if you could share the reported outcome for "COc1ccc(C)cc1N" .
// result inactive

// query Try "CCCCCCCCCCO" next.
// result inactive

###

read-out: Monokine induced gamma interferon (MIG), CXCL9 (gene 4283); assay: BSK_3C_MIG: BioMAP Diversity Plus: 3C Assay for Monokine induced gamma interferon (MIG) Biomarker Activity (AID 2283021); details: primary human endothelial cells (HUVEC); actives raise or lower the signal
Active and inactive are the calls of the source. How the source made its calls: active means hit-call score of the fitted dose curve at least 0.9, where 1 is the maximum; inactive means score below 0.9.
Give one outcome, nothing more. List: active, inactive

Please review the entries below; each comes with its answer.
COMPOUND: CN[C@H]1CC[C@@H](c2ccc(Cl)c(Cl)c2)c2ccc(S(N)(=O)=O)cc21
CAT: active
--
COMPOUND: COc1cc(S(=O)(=O)O)c(C)cc1N=Nc1c(O)ccc2cc(S(=O)(=O)O)ccc12
CAT: inactive
--
COMPOUND: C=CCc1ccc(O)c(OC)c1
CAT: inactive
--
COMPOUND: OC[C@@H](O)[C@@H](O)[C@H](O)[C@H](O)CO
CAT: inactive
--
COMPOUND: Nc1ccccc1N
CAT: inactive

// query Field: outcome | Entry: "CC(C)c1ccc(C(=O)N=C(N)N)cc1S(C)(=O)=O"
// result inactive

// query Try "CCCCCCCCCCCC(=O)OC" next.
// result inactive

// query Try "Cc1cccc(C)c1O" next.
// result inactive

// query Try "Cc1oc(-c2ccccc2)nc1CCOc1cccc2c1ccn2CCC(=O)O" next.
// result inactive

// query Try "CCCCCCCCCCCCCCCCCC(=O)O" next.
// result inactive

// query Try "CCOC(=O)C(C)(C)Oc1ccc(Cl)cc1" next.
// result inactive

// query Try "O=c1[nH]cc(F)c(=O)[nH]1" next.
// result inactive

// query Try "CC(=O)OC/C=C(\C)CCC=C(C)C" next.
// result inactive

// query Try "O=C(O)CCCCC(=O)O" next.
// result inactive

###

test: APR_HepG2_MitoMembPot_24hr: Apredica 24-hour HepG2 Assay for Mitochondrial Membrane Potential (AID 2282911); details: imaging, actives raise or lower the signal
Calls of active or inactive are those of the source. Rule for the calls: active = hit-call score of the fitted dose curve at least 0.9, where 1 is the maximum; inactive = score below 0.9.
Give one outcome, nothing more. List: active, inactive

// query Field: outcome | Entry: "O=C(OCCCCCOC(=O)c1ccccc1)c1ccccc1"
// result inactive

// query Try "CNCc1cc(F)ccc1Oc1ccc(Cl)c(Cl)c1" next.
// result active

// query Try "COc1cc(/C=C/C(=O)CC(=O)/C=C/c2ccc(O)c(OC)c2)ccc1O" next.
// result active

// query Try CC(=O)C(C)=CC1C(C)=CCCC1(C)C (stereo unspecified) next.
// result inactive

// query Try "O=C(O)Cc1ccccc1Nc1c(Cl)cccc1Cl" next.
// result inactive

// query Try "O=C(O)CCCCC(=O)O" next.
// result inactive

###

read-out: MicroRNA 122 (MIR122), gene 406906; experiment: LTEA_HepaRG_MIR122: Life Technologies and Expression Analysis (LTEA) Assay for MicroRNA 122 (MIR122) using HepaRG (AID 2283516); conditions: mRNA level, 48 h; actives raise or lower the signal; also: the transcript read is the microRNA miR-122
Activity calls are given as the source filed them. Rule for the calls: active = hit-call score of the fitted dose curve at least 0.9, where 1 is the maximum; inactive = score below 0.9.
Give one outcome, nothing more. List: active, inactive

// query Field: outcome | Entry: "CC(C)(C)c1cc(O)c(C(C)(C)C)cc1O"
// result active

// query Try "CCCCOC(=O)CCCCCCCCC(=O)OCCCC" next.
// result inactive

// query Try "CCCCCCCCCCCCCCCCCC(=O)O" next.
// result inactive

// query Try "Cc1cccc(C)c1O" next.
// result inactive

// query Try "C1CCC(SSC2CCCCC2)CC1" next.
// result inactive
